The following sequences are listed with their measured soluble fraction (log2) values.
# method_notes: soluble fraction after stress (log2 fold change); higher = more stays soluble; pooled small domains, quantitative proteomics
# test_conditions: stress: 50 degC
quantity_kind: soluble fraction (log2)

macromolecule_sequence | observed_result
HMEKLPRYILPGVPKVKSINISSALDGLVQDYSREFNISQKDIFQIALVEFFKKYGYHNAVKAVL | -0.314
HMGRSTQVPGVEKMTYSQAVQLLHDHGFRVDIRDSLYRDDIKPGHVIEQFPKAKSIVKPGRKIFLYINAV | -1.32
HMFGEKEFYQWIGKTAGEKFSGLPAAVIKSLYKYWREYNLSEEDIMGFIRQTELLPKRTPLDVELFFEK | -0.456
HMGTIEEYSKYLINQYFDSLKKPMDAMTTSEKIEIVKSLDKKGIFNLKGSVGELAKRFNTSEKTIYRYLSS | 0.0367
HMENNIPANIKALIISYVNQNYPGAVIHSIERNSNGTYDVEIYYNNREYDLLFDAQGNFISGNVDDQ | 0.0611
HMFQNPSQVVTTRVGELRAAIPTAQQGRITMGVAVVEDANSVRSVLISTSEPRGYLRPGVTLGPGETMV | 0.0203
HMLGNIERALEMLQEVAATMDPVDIRLLLSMAQVESVRGNTEAAVKLIDEALVIDPGNERIEQIRLRVL | -0.558
HMELLSVPSRLGTFFLGGEAGHIIRLYLPGDPTPRIAEHETPVLSEARRQLLEYLAGRRTAFSFPL | -0.139
HMTASKSTVSTPEKVVYHIVFPKETKYSIAKKYGITIEELEKRNPEIIPSLSVGQKLVIKGTAPK | -0.00327
HMDKSPVLQLNRDVPAGQQISADDFRTVEIGADGAFRSVPSSDLNAMVGSYAKVRLIAGTLLAREALQSG | 0.0412
HMRPTAWEQVSRHIDQHGSIGNTEVRKAMETENVLAASKQIKKWLEQGLLIILNPTAGTRARRYSKPNM | -0.287
HMINITALVKQLGGVDISKFNSAFKLLQQGKPLNTISNKVMADTFVALMKNSDEALNTKFRAAFKKI | -0.272
HMFGEDNLKSKEIKERVTEVAKHADDPVWIEARRKWKDENPDQNVKDYQQAYISGRIHELPWDVSYI | 0.142
HMGSNENTIREYFDSLIASASKREIMDANPTMSQRTVERILQKLQAEGYVEKIGAARSTRYRRA | -0.178
HMGITPSIEMILEYFAFKESSETEANKFFNYYSSIGWLVGGKTKMKDWKASARNWIMNQNKFQ | -3.97
HMYGTERILAQLANYGIPNKLAFQIQDFYKEETLQIVEQQPYRLVEDIQGMGFKIADQLAEELGI | -0.317
HMTGESVPAPLSGTIFKILVAPGEQVEEGQTVIILEAMKMETEISAPRSGVVGAINIKEGDSVQVGQSLFT | 0.0706
HMSSPRAIYSAIQKAVGEDMILYREDVQIILDKLDADLLVDDILEKMELDGTLVRQRDGTWLLL | -0.658
HMGETRWTYDDFGNILTEKAAPYSATEFLGKTYTYDTDNRYLKTVTDALGRTTTTLSYDKYGNPLSVMD | 0.101
HMTYTPRAGSLASQVIGFFRHNPDEELLLDDITDKFDATRGNIHTLLAEAVRFKLLARYRNDDGDYVYKPG | -2.97
HMNKEDIASNEKLLGLLNHMSKVLKDIDFIKDDRPMIVRKINHIFKKATLSEEEINILRGVLSAIENHS | -0.479
HMALPDSEKRQWLVDEVNERGLKLPDDVLEYLFARVGRSQAHLVDVIEKLDFESLAQSRKLTIPFVREVLK | -0.152
